From: PubChem BioAssay (NCI)

Provide the recorded TGI for the entries that follow.
Test system: HCT-15 colon
Assay: NCI tumour cell line growth inhibition, 48 h

Below, 3 molecules whose answers are already recorded.
Molecule	Measurement Target	Endpoint Result
Cc1cc(Cl)ccc1Nc1nc(C(F)(F)F)ccc1C(=O)N/N=C/c1cccc(O)c1	HCT-15 colon	16 µM
CN1CCCN(C)CCCN(C)CCCN(C)CCC1	HCT-15 colon	> 100 µM
c1ccc2[nH]c(C3CCCCO3)nc2c1 (stereo unspecified)	HCT-15 colon	> 100 µM

Give measured TGI for every item shown.
1. CCc1c(-c2ccccc2)[nH]c2ccccc2c1=O
2. OC[C@H]1C[C@@H]2Cc3ccccc3N2N1
3. Cn1ccnc1C(=O)/C=C/c1ccc(C(=O)Nc2ccc(F)cc2)cc1

> 100 µM
> 100 µM
2.5 µM

Give measured TGI for every item shown.
1. CCOc1c(OC)cc(C2c3cc4c(c(OCC)c3CC3COC(=O)C32)OCO4)cc1OC (stereo unspecified)
2. O=C(O)c1ccc2nc(-c3ccc(OCCCCCOc4ccc(-c5nc6ccc(C(=O)O)cc6[nH]5)cc4)cc3)[nH]c2c1
3. COc1ccc(OC)c(N(CCN2C(=O)c3ccccc3C2=O)C(=O)CCl)c1
4. O=C1c2ccccc2C(=O)c2[nH]c(Cc3ccccc3F)nc21
5. Oc1cc2ccccc2cc1-c1n[nH]c(=S)n1CCc1ccccc1

2.68 µM
> 100 µM
> 54.6 µM
> 100 µM
51.9 µM

Hey, quick one: what's TGI for each of these?
1. CC1(C)COC(c2ccc(C(=O)c3ccc(Cl)cc3)cc2)=N1
2. CCc1n[nH]c(=S)n1/N=C/c1ccc(-c2ccc([N+](=O)[O-])cc2)o1
3. COc1cc2c(cc1O)[C@@]1(Cc3ccc(OC)c(OC)c3)CCC(=O)N1CC2
4. CC1OC(OC2C(O)COC(OC3C(C)OC(OC4C(OC(=O)[C@]56CCC(C)(C)C[C@@H]5C5=CCC7[C@@]8(C)C[C@H](O)[C@H](OC9OC(CO)C(O)C(O)C9O)[C@@](C)(CO)[C@@H]8CC[C@@]7(C)[C@]5(C)CC6)OCC(O)C4O)C(O)C3OC3OCC(O)C(O)C3O)C2O)C(O)C(O)C1O (stereo partly specified)

1. > 100 µM
2. > 100 µM
3. > 100 µM
4. 51.4 µM

Your task in this section: give TGI for each listed record.
1. O=C1Nc2ccccc2/C1=C/C(=N/c1nnc(-c2ccc(Cl)cc2)s1)c1ccccc1
2. Cc1ccc(Cl)cc1Nc1nc(C(F)(F)F)ccc1C(N)=O
3. CCOC(=O)c1cnc2c(C)cc(C)cc2c1NCCCN(C)C
4. COc1ccc2c3c([nH]c2c1)C(=O)c1nc(C)ccc1C3=O
5. CC(=O)Oc1c(C)cc2c(c1C)C(C)CN2C(C)=O (stereo unspecified)

1. 3.28 µM
2. > 100 µM
3. 51.7 µM
4. > 100 µM
5. > 100 µM

Recorded result, COC(=O)c1oc2c(C(C)=O)c(OCCN3CCOCC3)c(OC)cc2c1C , TGI: > 100 µM

----------
Tested on: EKVX NSCLC
Test: NCI tumour cell line growth inhibition, 48 h
Assay Metric: GI50

Worked cases, answers included:
Molecule	Measurement Target	GI50
COC(=O)c1ccc2[nH]c(O)c(C(=Nc3ccc(N(C)C(=O)CN4CCN(C)CC4)cc3)c3cccc(OC)c3)c2c1	EKVX NSCLC	2.04 µM
N#Cc1cc2c(cc1Cl)SC(=Nc1ccccc1)N(S(=O)(=O)c1ccc(Cl)cc1)S2(=O)=O	EKVX NSCLC	16.9 µM
COc1ccc2c(c1)c(-c1nonc1-c1cn(C)c3ccccc13)cn2C	EKVX NSCLC	1.11 µM

Quick one: give me GI50 for each item below, same order please.
1. COc1ccc(C(=O)N2N=C(c3ccc(Br)cc3)CC2c2cn(-c3ccccc3)nc2-c2ccccc2)cc1 (stereo unspecified)
2. C=C1C(=O)O[C@H]2[C@H]1CC/C(COC(=O)NCc1ccc(Cn3c(=O)sn(CCCC)c3=O)cc1)=C\CC[C@@]1(C)O[C@@H]21
3. CC(=O)Oc1cn(-c2ccc(Cl)cc2)nc1C1=NN(C(C)=O)C(c2ccc(F)cc2F)O1 (stereo unspecified)
4. CCOC(=O)C(=Cc1ccc(-c2ccccc2)cc1)C(=O)OCC
5. Cn1ccnc1C(=O)/C=C/c1ccc(C(=O)Nc2ccc(F)cc2)cc1
6. C=C1CC[C@@H]2C(C)(C)[C@H](O)CC[C@@]2(C)[C@@H]1COc1ccc2ccc(=O)oc2c1

["> 50 µM", "3.32 µM", "28.5 µM", "10.3 µM", "2.2 µM", "29 µM"]

Hey, quick one: what's GI50 for each of these?
1. COC(=O)c1oc2c(C(C)=O)c(OCCN3CCOCC3)c(OC)cc2c1C
2. COc1cccc(CNCCN2C(=O)c3ccc4c5c(ccc(c35)C2=O)C(=O)N(CCNCc2cccc(OC)c2)C4=O)c1

1. > 100 µM
2. 15.7 µM

----------
Test system: SK-MEL-5 melanoma
Test: NCI tumour cell line growth inhibition, 48 h
For each of the molecules below, state its TGI.
Numbers only, in µM.

Worked examples follow.
Molecule	TGI [µM]
Cc1ccc2c(c1)C(=O)C(c1c(-c3[nH]c(=O)c4ccc(C)cc4c3O)c(O)c3ccccc3c1O)=NC2=O	3.81
Cc1ccc(Cl)cc1Nc1nc(C(F)(F)F)ccc1C(N)=O	6.6
CC1OC(OC2C(O)COC(OC3C(C)OC(OC4C(OC(=O)[C@]56CCC(C)(C)C[C@@H]5C5=CCC7[C@@]8(C)C[C@H](O)[C@H](OC9OC(CO)C(O)C(O)C9O)[C@@](C)(CO)[C@@H]8CC[C@@]7(C)[C@]5(C)CC6)OCC(O)C4O)C(O)C3OC3OCC(O)C(O)C3O)C2O)C(O)C(O)C1O (some centres not stated)	36.2
COc1cc(/C=C\c2cc(/C=C\c3ccc(O)c(OC)c3)n(C(=O)COc3ccc(Cl)cc3Cl)n2)ccc1O	3.03

Each molecule below has a recorded value; state its TGI.
1. CN1CCN(CCCOc2ccc3ncnc(Nc4ccc(OCc5cccc(F)c5)c(Cl)c4)c3c2)CC1
2. C=C1C(=O)O[C@@H]2C[C@@H]3[C@]4(CC[C@]5(C)[C@@H]([C@H](C)CC/C=C(\C)C=O)CC[C@@]35C)C[C@]4(CCC(=O)OC)[C@H]12
3. CC[C@H](C)[C@H](NC(=O)C12CC(NC)(C1)C2)C(=O)N(C)[C@H](C[C@@H](OC(C)=O)c1nc(C(=O)N[C@@H](Cc2ccccc2)C[C@H](C)C(=O)OC)cs1)C(C)C

3.04
2.3
0.999

----------
System: BT-549 breast
Assay: NCI tumour cell line growth inhibition, 48 h
Assay Metric: TGI (µM)
Answers are plain numbers, in µM.

For orientation, consider the following solved cases.
Compound	Measurement Target	TGI [µM]
C=C1C(=O)O[C@@H]2C[C@@H]3[C@]4(CC[C@]5(C)[C@@H]([C@H](C)CC/C=C(\C)C=O)CC[C@@]35C)C[C@]4(CCC(=O)OC)[C@H]12	BT-549 breast	5.01
COc1ccccc1NC(=O)c1ccc(NC2=C(Cl)C(=O)N(Cc3ccccc3)C2=O)cc1	BT-549 breast	11
CN1CCN(CCOc2ccc(-c3cnc4c(-c5cccc(F)c5F)cnn4c3)cc2)CC1	BT-549 breast	3.15
CN1CCN(CCCOc2ccc3ncnc(Nc4ccc(OCc5cccc(F)c5)c(Cl)c4)c3c2)CC1	BT-549 breast	3

Reported BT-549 breast TGI for item CCOc1cc2ncc(C#N)c(Nc3ccc(F)c(Cl)c3)c2cc1NC(=O)CC1CCSS1 (stereo not given) was 7.46

----------
System: HCT-15 colon
Experiment: NCI tumour cell line growth inhibition, 48 h
So I've got a bunch of compounds here, and I need their TGI values.

Before answering, review these 2 worked examples.
Compound	Assay Metric	Endpoint Result
N#C/C(=C\c1ccc2c(c1)OCO2)n1nnc2ccccc21	TGI	13.8 µM
COC(=O)C1C(O)C(C)C(O)C(C)(O)C=C(C)C2=C3C(=C(C)C(=O)c4c(O)c(c(C)c(OC(C)=O)c43)NC(=O)C(C)=C/C=C\C(C)(O)C(O)C(C)C1O)OCO2 (stereo not given)	TGI	> 100 µM

Hi there! I need TGI for each item below, if you can.
1. O=c1cc(N2CCOCC2)[nH]c(=O)n1-c1cccc(Cl)c1
2. CCCC(=O)OCC(COC(=O)CCC)OC(=O)CCC
3. Cc1ccc(NN=NCCCCN=NNc2ccc(C)cc2)cc1

1: > 100 µM; 2: > 100 µM; 3: > 100 µM

----------
Test system: HCC-2998 colon
Experiment: NCI tumour cell line growth inhibition, 48 h; in the data active = GI50 below about 0.43 µM; inactive = the rest
Respond only with the outcome that fits, drawn from active, inactive

Compound	Answer Label
C=C1C(=O)O[C@H]2[C@H]1CC/C(COC(=O)NCc1ccc(Cn3c(=O)sn(CCCC)c3=O)cc1)=C\CC[C@@]1(C)O[C@@H]21	inactive
COc1cc2c(c(OC)c1OC)-c1ccc(SC)c(=O)cc1C(CC(=O)Oc1ccc(F)cc1)C2 (stereo not drawn)	active
COc1ccc(OC)c(N(CCN2C(=O)c3ccccc3C2=O)C(=O)CCl)c1	inactive

GET /call?item= COc1ccc2c(c1)c(-c1nonc1-c1cn(C)c3ccccc13)cn2C returns the recorded outcome of this test. inactive
